# House Fly Mortality at 1.5% concentration annotations
Tested on: house flies
Assay: Knockdown and mortality of DHAA-based derivatives on house flies
Type: in vivo, house fly
Conditions: 1.5% concentration
Text: Accordingly, further derivatives with structures similar to Formula C3 were synthesized and tested for knockdown potential and mortality in house flies and mosquitoes using an experimental design similar to the one described above. These compounds include Formula C5, Formula C6, Formula C7, Formula C8, Formula C9, and Formula C10.
The reply should contain only the number, in %.

Example entries begin here.
{"compound": "COCC(=O)c1c(O)cc(C)oc1=O", "studyTarget": "house flies", "units": "%", "reportedValue": 6}
{"compound": "Cc1cc(O)c(C(=O)CSCC(=O)O)c(=O)o1", "studyTarget": "house flies", "units": "%", "reportedValue": 6}
{"compound": "CCOCC(=O)c1c(O)cc(C)oc1=O", "studyTarget": "house flies", "units": "%", "reportedValue": 13}
{"compound": "Cc1cc(O)c(C(=O)CC(O)C(C)C)c(=O)o1 (centres unmarked)", "studyTarget": "house flies", "units": "%", "reportedValue": 24}

Next:
INPUT: For the compound `Cc1cc(O)c(C(=O)COCc2ccccc2)c(=O)o1` , what House Fly Mortality at 1.5% concentration is on record?
OUTPUT: 9
